# Tested on: Li-7
# EXPERIMENT DESCRIPTION: Cell proliferation assay (Alamar Blue)
# Format: cell-based
# CONDITION INFO: 144 h; Li-7 liver cancer cell line; 6 days
# Method: 1. Instruments and Materials • Thermo 311 CO2 incubator; Haier biosafety cabinet; Molecular Devices microplate reader; Xiangyi brand L530 desktop low speed centrifuge; Olympus IX51 inverted fluorescence microscope, DMEM, RPMI 1640, MEM, DMEM/F12 1:1 medium, Fetal bovine serum, 0.25% trypsin solution, phosphate buffer (Thermo Fisher Shanghai Co., Ltd.); sigma dimethyl sulfoxide (DMSO), resazurin; 54 commercial tumor cell lines (including 26 liver cancer cell lines). […]
ENDPOINT LABEL: pIC50
Please report pIC50 as the negative decimal logarithm of the molar concentration, giving only the number.

Reported pIC50 of `Cc1ccc(F)c(NC(=O)Nc2ccc(-c3cccc4c3c(N)nn4C(=O)CCCCCNC(=O)C[C@H](N)C(=O)O)cc2)c1` : 4.46

Reported pIC50 of `Cc1ccc(F)c(NC(=O)Nc2ccc(-c3cccc4c3c(N)nn4C(=O)C[C@H](N)C(=O)O)cc2)c1` : 5.36

Reported pIC50 of `Cc1ccc(F)c(NC(=O)Nc2ccc(-c3cccc4c3c(N)nn4C(=O)CCCCCNC(=O)C[C@H](N)C(=O)N[C@@H](CCC(=O)N[C@@H](CCC(=O)N[C@@H](CCC(=O)N[C@@H](CCC(=O)N[C@@H](CCC(=O)N[C@@H](CCC(=O)N[C@@H](CCC(=O)N[C@@H](CCC(=O)N[C@@H](CCC(=O)O)C(=O)O)C(=O)O)C(=O)O)C(=O)O)C(=O)O)C(=O)O)C(=O)O)C(=O)O)C(=O)O)cc2)c1` : 4.09

---

# Test system: AN3CA
# EXPERIMENT DESCRIPTION: Cell proliferation assay (Alamar Blue)
# Assay type: cell-based
# CONDITION INFO: Homo sapiens, AN3-CA, 144 h; AN3CA (endometrial cells); 6 days
Record form. Attribute: pIC50. Fill in for each entry.
Please report pIC50 as the negative decimal logarithm of the molar concentration, giving only the number.

Reported pIC50 of Cc1ccc(F)c(NC(=O)Nc2ccc(-c3cccc4c3c(N)nn4C(=O)C[C@H](N)C(=O)O)cc2)c1 [Compound 10] : 6.62

Reported pIC50 of Cc1ccc(F)c(NC(=O)Nc2ccc(-c3cccc4c3c(N)nn4C(=O)C[C@H](N)C(=O)N[C@@H](CCC(=O)O)C(=O)O)cc2)c1 [Compound 1] : 6.51

Reported pIC50 of Cc1ccc(F)c(NC(=O)Nc2ccc(-c3cccc4c3c(N)nn4C(=O)CCCCCNC(=O)C[C@H](N)C(=O)O)cc2)c1 [Compound 11] : 4.70

---

# System: AN3CA
# EXPERIMENT DESCRIPTION: Cell proliferation assay (Alamar Blue)
# Type: cell-based
# CONDITION INFO: Homo sapiens, AN3-CA, 144 h; AN3CA (endometrial cells); 6 days
ENDPOINT LABEL: IC50 (µM)
Entry rule: numbers only, all in µM.

Reported IC50 of Cc1ccc(F)c(NC(=O)Nc2ccc(-c3cccc4[nH]nc(N)c34)cc2)c1 [Linifanib, reference compound] : 0.19

Reported IC50 of `Cc1ccc(F)c(NC(=O)Nc2ccc(-c3cccc4c3c(N)nn4C(=O)CCCCCNC(=O)C[C@H](N)C(=O)N[C@@H](CCC(=O)O)C(=O)O)cc2)c1` : 28.7

Reported IC50 of `Cc1ccc(F)c(NC(=O)Nc2ccc(-c3cccc4c3c(N)nn4C(=O)CCCCCCCCCCCNC(=O)C[C@H](N)C(=O)O)cc2)c1` : 2.08

Reported IC50 of `Cc1ccc(F)c(NC(=O)Nc2ccc(-c3cccc4c3c(N)nn4C(=O)CCCCCNC(=O)C[C@H](N)C(=O)N[C@@H](CCC(=O)N[C@@H](CCC(=O)N[C@@H](CCC(=O)N[C@@H](CCC(=O)N[C@@H](CCC(=O)N[C@@H](CCC(=O)N[C@@H](CCC(=O)N[C@@H](CCC(=O)N[C@@H](CCC(=O)O)C(=O)O)C(=O)O)C(=O)O)C(=O)O)C(=O)O)C(=O)O)C(=O)O)C(=O)O)C(=O)O)cc2)c1` : 55.4

Reported IC50 of `Cc1ccc(F)c(NC(=O)Nc2ccc(-c3cccc4c3c(N)nn4C(=O)CCCCCCCCCCCNC(=O)C[C@H](N)C(=O)N[C@@H](CCC(=O)O)C(=O)O)cc2)c1` : 2.94

Reported IC50 of `Cc1ccc(F)c(NC(=O)Nc2ccc(-c3cccc4c3c(N)nn4C(=O)CCCCCCCCCCCNC(=O)C[C@H](N)C(=O)N[C@@H](CCC(=O)N[C@@H](CCC(=O)N[C@@H](CCC(=O)N[C@@H](CCC(=O)O)C(=O)O)C(=O)O)C(=O)O)C(=O)O)cc2)c1` : 3.14

---

# Test system: HUH6
# EXPERIMENT DESCRIPTION: Cell proliferation assay (Alamar Blue)
# Type: cell-based
# CONDITION INFO: Homo sapiens, HuH-6, 144 h; HUH6 liver cancer cell line; 6 days
ENDPOINT LABEL: IC50 (µM)
Entry rule: numbers only, all in µM.

Reported IC50 of `Cc1ccc(F)c(NC(=O)Nc2ccc(-c3cccc4c3c(N)nn4C(=O)C[C@H](N)C(=O)O)cc2)c1` : 0.15

Reported IC50 of `Cc1ccc(F)c(NC(=O)Nc2ccc(-c3cccc4c3c(N)nn4C(=O)CCCCCCCCCCCNC(=O)C[C@H](N)C(=O)O)cc2)c1` : 10.6

Reported IC50 of `Cc1ccc(F)c(NC(=O)Nc2ccc(-c3cccc4c3c(N)nn4C(=O)CCCCCCCCCCCNC(=O)C[C@H](N)C(=O)N[C@@H](CCC(=O)N[C@@H](CCC(=O)N[C@@H](CCC(=O)N[C@@H](CCC(=O)N[C@@H](CCC(=O)N[C@@H](CCC(=O)N[C@@H](CCC(=O)N[C@@H](CCC(=O)N[C@@H](CCC(=O)O)C(=O)O)C(=O)O)C(=O)O)C(=O)O)C(=O)O)C(=O)O)C(=O)O)C(=O)O)C(=O)O)cc2)c1` : 50.3

Reported IC50 of `Cc1ccc(F)c(NC(=O)Nc2ccc(-c3cccc4c3c(N)nn4C(=O)C[C@H](N)C(=O)N[C@@H](CCC(=O)O)C(=O)O)cc2)c1` : 0.13

Reported IC50 of `Cc1ccc(F)c(NC(=O)Nc2ccc(-c3cccc4c3c(N)nn4C(=O)C[C@H](N)C(=O)N[C@@H](CCC(=O)N[C@@H](CCC(=O)N[C@@H](CCC(=O)N[C@@H](CCC(=O)N[C@@H](CCC(=O)N[C@@H](CCC(=O)N[C@@H](CCC(=O)N[C@@H](CCC(=O)N[C@@H](CCC(=O)O)C(=O)O)C(=O)O)C(=O)O)C(=O)O)C(=O)O)C(=O)O)C(=O)O)C(=O)O)C(=O)O)cc2)c1` : 1.55

Reported IC50 of `Cc1ccc(F)c(NC(=O)Nc2ccc(-c3cccc4c3c(N)nn4C(=O)CCCCCNC(=O)C[C@H](N)C(=O)N[C@@H](CCC(=O)N[C@@H](CCC(=O)N[C@@H](CCC(=O)N[C@@H](CCC(=O)O)C(=O)O)C(=O)O)C(=O)O)C(=O)O)cc2)c1` : 72.2

Reported IC50 of `Cc1ccc(F)c(NC(=O)Nc2ccc(-c3cccc4c3c(N)nn4C(=O)CCCCCNC(=O)C[C@H](N)C(=O)O)cc2)c1` : 46.4

Reported IC50 of `Cc1ccc(F)c(NC(=O)Nc2ccc(-c3cccc4c3c(N)nn4C(=O)CCCCCCCCCCCNC(=O)C[C@H](N)C(=O)N[C@@H](CCC(=O)N[C@@H](CCC(=O)N[C@@H](CCC(=O)N[C@@H](CCC(=O)O)C(=O)O)C(=O)O)C(=O)O)C(=O)O)cc2)c1` : 28.2

---

# Test system: HUH7
# EXPERIMENT DESCRIPTION: Cell proliferation assay (Alamar Blue)
# Assay type: cell-based
# CONDITION INFO: Homo sapiens, Huh-7, 144 h; HUH7 liver cancer cell line; 6 days
Could you please mark MET for values of IC50 below 60 µM and NOT MET for values at or above it?

Input: Is IC50 strictly under 60 µM for the entry `Cc1ccc(F)c(NC(=O)Nc2ccc(-c3cccc4c3c(N)nn4C(=O)CCCCCNC(=O)C[C@H](N)C(=O)N[C@@H](CCC(=O)N[C@@H](CCC(=O)N[C@@H](CCC(=O)N[C@@H](CCC(=O)N[C@@H](CCC(=O)N[C@@H](CCC(=O)N[C@@H](CCC(=O)N[C@@H](CCC(=O)N[C@@H](CCC(=O)O)C(=O)O)C(=O)O)C(=O)O)C(=O)O)C(=O)O)C(=O)O)C(=O)O)C(=O)O)C(=O)O)cc2)c1` ?
Output: NOT MET

Input: Is IC50 strictly under 60 µM for the entry `Cc1ccc(F)c(NC(=O)Nc2ccc(-c3cccc4c3c(N)nn4C(=O)CCCCCCCCCCCNC(=O)C[C@H](N)C(=O)N[C@@H](CCC(=O)N[C@@H](CCC(=O)N[C@@H](CCC(=O)N[C@@H](CCC(=O)O)C(=O)O)C(=O)O)C(=O)O)C(=O)O)cc2)c1` ?
Output: MET

Input: Is IC50 strictly under 60 µM for the entry Cc1ccc(F)c(NC(=O)Nc2ccc(-c3cccc4[nH]nc(N)c34)cc2)c1 [Linifanib, reference compound] ?
Output: MET

Input: Is IC50 strictly under 60 µM for the entry `Cc1ccc(F)c(NC(=O)Nc2ccc(-c3cccc4c3c(N)nn4C(=O)C[C@H](N)C(=O)O)cc2)c1` ?
Output: MET
